# ASSAYED_TARGET: serotonine transporter (SERT) receptor (Homo sapiens, UniProt P31645)
# Construct: expressed in transfected cells; host or cells: CHO cells
# Sequence (P31645 whole entry): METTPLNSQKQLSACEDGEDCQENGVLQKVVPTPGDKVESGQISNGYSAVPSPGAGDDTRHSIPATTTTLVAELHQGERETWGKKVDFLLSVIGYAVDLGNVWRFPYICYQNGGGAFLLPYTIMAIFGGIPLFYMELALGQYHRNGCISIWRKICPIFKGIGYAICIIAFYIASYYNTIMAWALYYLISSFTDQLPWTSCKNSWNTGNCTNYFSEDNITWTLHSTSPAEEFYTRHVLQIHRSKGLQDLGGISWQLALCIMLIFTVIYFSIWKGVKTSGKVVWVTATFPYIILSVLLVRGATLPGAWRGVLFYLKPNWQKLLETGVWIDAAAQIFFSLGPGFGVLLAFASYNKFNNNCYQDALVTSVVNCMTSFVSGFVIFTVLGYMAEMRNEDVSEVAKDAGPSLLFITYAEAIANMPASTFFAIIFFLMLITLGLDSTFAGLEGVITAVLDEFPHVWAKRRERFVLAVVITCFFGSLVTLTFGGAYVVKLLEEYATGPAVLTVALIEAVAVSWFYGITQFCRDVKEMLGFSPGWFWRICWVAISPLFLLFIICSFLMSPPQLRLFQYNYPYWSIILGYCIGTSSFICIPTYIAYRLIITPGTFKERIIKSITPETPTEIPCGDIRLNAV
# PROCEDURE_DETAILS: Binding assay SERT (h), [3H]imipramine, CHO cells
# PROTOCOL_CONDITIONS: read-out: SERT [%]
Please go through the items and note down their inhibition at 1 µM.
Answer with the value and then the unit.

Need inhibition at 1 µM of O=c1[nH]c2cccc(N3CCN(CCCNS(=O)(=O)c4cccc5ccccc45)CC3)c2[nH]1 , thanks.
25%

Need inhibition at 1 µM of O=S(=O)(NCCCCN1CCC(c2noc3cc(F)ccc23)CC1)c1ccc2c(c1)OCCO2 , thanks.
61%

Need inhibition at 1 µM of O=S(=O)(NCCCN1CCN(c2nsc3ccccc23)CC1)c1ccc(OC(F)(F)F)cc1 , thanks.
16%

Need inhibition at 1 µM of O=S(=O)(NCCCN1CCN(c2nsc3ccccc23)CC1)c1cc2ccc(Cl)cc2s1 , thanks.
-18%

Need inhibition at 1 µM of Cc1[nH]c2ccc(Cl)cc2c1C1=CCN(CCNS(=O)(=O)c2cccc(O)c2)CC1 , thanks.
23%

Need inhibition at 1 µM of O=S(=O)(NCCCCN1CCC(c2noc3cc(F)ccc23)CC1)c1ccc2ccccc2c1 , thanks.
39%

Need inhibition at 1 µM of O=S(=O)(NCCCCN1CCC(c2noc3cc(F)ccc23)CC1)c1ccc(F)c(F)c1 , thanks.
16%

Need inhibition at 1 µM of O=S(=O)(NCCCCN1CCN(c2cccc3[nH]ccc23)CC1)c1ccc2ccccc2c1 , thanks.
14%

Need inhibition at 1 µM of O=S(=O)(NCCCCN1CCN(c2cccc3c2OCCO3)CC1)c1cccc(F)c1 , thanks.
-28%

Need inhibition at 1 µM of O=S(=O)(NCCCN1CCC(c2noc3cc(F)ccc23)CC1)c1ccc2ccccc2c1 , thanks.
46%

Need inhibition at 1 µM of O=S(=O)(NCCCN1CCC(c2noc3cc(F)ccc23)CC1)c1ccc2c(c1)OCCO2 , thanks.
45%

Need inhibition at 1 µM of O=S(=O)(NCCCCN1CCN(c2noc3ccccc23)CC1)c1c[nH]c2ncccc12 , thanks.
2%

Need inhibition at 1 µM of O=S(=O)(NCCCN1CCC(c2noc3cc(F)ccc23)CC1)c1ccc(Br)cc1 , thanks.
-2%

Need inhibition at 1 µM of O=S(=O)(NCCCCN1CCC(c2noc3cc(F)ccc23)CC1)c1cccc2scnc12 , thanks.
45%

Need inhibition at 1 µM of O=C1COc2c(cccc2N2CCN(CCCCNS(=O)(=O)c3ccc(F)cc3)CC2)N1 , thanks.
23%

Need inhibition at 1 µM of Cc1[nH]c2ccc(Cl)cc2c1C1=CCN(CCNS(=O)(=O)c2cccc3ccccc23)CC1 , thanks.
23%

Taken from patent US8822517B2.
